# experimental.system: VEGF (Homo sapiens, UniProt P15692)
# Sequence (P15692 27-191 isoform P15692-4): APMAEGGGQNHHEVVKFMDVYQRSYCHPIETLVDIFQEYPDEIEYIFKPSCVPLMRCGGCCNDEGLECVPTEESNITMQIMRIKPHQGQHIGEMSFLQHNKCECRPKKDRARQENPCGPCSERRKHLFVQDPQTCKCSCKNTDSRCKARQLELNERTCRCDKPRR
# run.description: Biacore biosensor: inhibition of VEGF binding to immobilised heparin and heparan sulfate
# conditions.used: immobilised heparin; inhibitor 0.034 μM, VEGF 0.025 μM
Documented Inhibition of binding of VEGF (Hep) across a set of molecules

| molecule | Inhibition of binding of VEGF (Hep) |
| --- | --- |
| O=S(=O)(O)OC1C=CC(N(Cc2cccc(CN(C3C=CC(OS(=O)(=O)O)C(OS(=O)(=O)O)C3OS(=O)(=O)O)C3C=CC(OS(=O)(=O)O)C(OS(=O)(=O)O)C3OS(=O)(=O)O)c2)C2C=CC(OS(=O)(=O)O)C(OS(=O)(=O)O)C2OS(=O)(=O)O)C(OS(=O)(=O)O)C1OS(=O)(=O)O (stereo not drawn) | 44% (Hep) |
| O=S(=O)(O)OC[C@H]1O[C@@](COS(=O)(=O)O)(O[C@H]2O[C@H](COS(=O)(=O)O)[C@@H](OS(=O)(=O)O)[C@H](OS(=O)(=O)O)[C@H]2OS(=O)(=O)O)[C@@H](OS(=O)(=O)O)[C@@H]1OS(=O)(=O)O [Sucrose octasulfate, reference compound] | 0% (Hep) |
| O=S(=O)(O)OC1C(OS(=O)(=O)O)C(OS(=O)(=O)O)C(N(Cc2cccc(CN(C3C(OS(=O)(=O)O)C(OS(=O)(=O)O)C(OS(=O)(=O)O)C(OS(=O)(=O)O)C3OS(=O)(=O)O)C3C(OS(=O)(=O)O)C(OS(=O)(=O)O)C(OS(=O)(=O)O)C(OS(=O)(=O)O)C3OS(=O)(=O)O)c2)C2C(OS(=O)(=O)O)C(OS(=O)(=O)O)C(OS(=O)(=O)O)C(OS(=O)(=O)O)C2OS(=O)(=O)O)C(OS(=O)(=O)O)C1OS(=O)(=O)O (stereo not drawn) | 54% (Hep) |

###

Catalogue of Inhibition of binding of VEGF (HS) values
# experimental.system: VEGF (Homo sapiens)
# run.description: Biacore biosensor: inhibition of VEGF binding to immobilised heparin and heparan sulfate
# conditions.used: immobilised heparan sulfate; inhibitor 0.034 μM, VEGF 0.025 μM

| compound | experimental.system | Inhibition of binding of VEGF (HS) |
| --- | --- | --- |
| O=S(=O)(O)OC[C@H]1O[C@@](COS(=O)(=O)O)(O[C@H]2O[C@H](COS(=O)(=O)O)[C@@H](OS(=O)(=O)O)[C@H](OS(=O)(=O)O)[C@H]2OS(=O)(=O)O)[C@@H](OS(=O)(=O)O)[C@@H]1OS(=O)(=O)O [Sucrose octasulfate, reference compound] | VEGF (Homo sapiens) | 0% (HS) |
| O=S(=O)(O)OC1C(OS(=O)(=O)O)C(OS(=O)(=O)O)C(N(Cc2cccc(CN(C3C(OS(=O)(=O)O)C(OS(=O)(=O)O)C(OS(=O)(=O)O)C(OS(=O)(=O)O)C3OS(=O)(=O)O)C3C(OS(=O)(=O)O)C(OS(=O)(=O)O)C(OS(=O)(=O)O)C(OS(=O)(=O)O)C3OS(=O)(=O)O)c2)C2C(OS(=O)(=O)O)C(OS(=O)(=O)O)C(OS(=O)(=O)O)C(OS(=O)(=O)O)C2OS(=O)(=O)O)C(OS(=O)(=O)O)C1OS(=O)(=O)O (centres unmarked) | VEGF (Homo sapiens) | 39% (HS) |
| O=S(=O)(O)OC1C=CC(N(Cc2cccc(CN(C3C=CC(OS(=O)(=O)O)C(OS(=O)(=O)O)C3OS(=O)(=O)O)C3C=CC(OS(=O)(=O)O)C(OS(=O)(=O)O)C3OS(=O)(=O)O)c2)C2C=CC(OS(=O)(=O)O)C(OS(=O)(=O)O)C2OS(=O)(=O)O)C(OS(=O)(=O)O)C1OS(=O)(=O)O (centres unmarked) | VEGF (Homo sapiens) | 40% (HS) |
| O=S(=O)(O)OC1C=CC(N(Cc2ccc(CN(C3C=CC(OS(=O)(=O)O)C(OS(=O)(=O)O)C3OS(=O)(=O)O)C3C=CC(OS(=O)(=O)O)C(OS(=O)(=O)O)C3OS(=O)(=O)O)cc2)C2C=CC(OS(=O)(=O)O)C(OS(=O)(=O)O)C2OS(=O)(=O)O)C(OS(=O)(=O)O)C1OS(=O)(=O)O (centres unmarked) | VEGF (Homo sapiens) | 51% (HS) |
| O=S(=O)(O)OC1C=CC(N(CCCCCCN(C2C=CC(OS(=O)(=O)O)C(OS(=O)(=O)O)C2OS(=O)(=O)O)C2C=CC(OS(=O)(=O)O)C(OS(=O)(=O)O)C2OS(=O)(=O)O)C2C=CC(OS(=O)(=O)O)C(OS(=O)(=O)O)C2OS(=O)(=O)O)C(OS(=O)(=O)O)C1OS(=O)(=O)O (centres unmarked) | VEGF (Homo sapiens) | 32% (HS) |
